- Tested on: cynomolgus heparanase
- Experimental Details: Cross species capture ELISA, cynomolgus heparanase
- Assay type: binding
- Stated Conditions: min 0.06, max 1.5 OD units
Recorded Metric: Binding to heparanase Cyno (OD units)
Unit OD units implied. Number only.

Record excerpt, results attached:
Molecule	Measured Value
10E9.1: fully human anti-heparanase monoclonal antibody, G2κ; VH SEQ ID NO 2, VL SEQ ID NO 4; ATCC PTA-9489 (antibody, listed as Homo Sapiens, V domains shown, fully human anti-heparanase monoclonal antibody, G2κ; ATCC PTA-9489) VH: QVQLVQSGAEVKKPGASVKVSCKVSGYSLTELSIHWVRQAPGKGLEWMGGFDPEDGEIIFAQKFQGRVTLTEDISLDTAYMEVSSLRSEDTAVYYCATEGHDSGDYVGYYYYGLDVWGQGTTVTVSS VL: DIQMTQSPSSLSASVGDRVTITCRASQDIRNFLAWYQQKPGKLPKLLIYAASTLQSGVPSRFSGSGSGTDFTLTISSLQPEDVASYYCQSHNSVPFTFGPGTKVDIR	1.4
15A1.2: fully human anti-heparanase monoclonal antibody, G2κ; VH SEQ ID NO 6, VL SEQ ID NO 8; ATCC PTA-9491 (antibody, listed as Homo Sapiens, V domains shown, fully human anti-heparanase monoclonal antibody, G2κ; ATCC PTA-9491) VH: QVQLVQSGAEVKKPGASVKVSCKVSGYTLTELSMHWVRQAPGKGLEWMGGFDPEDGETIFAQKFQGRVTMTEDTSTDTAYMELSSLRSEDTAVYYCATGLRFLEWFLWGWDVWGQGTTVTVSS VL: DIQMTQSPSSVSASVGDRVTITCRASQGISNWLAWYQQTPGKAPQLLIYGASSLQSGVPSRFSGSGSGTDFTLTISSLQPEDFATYYCQQADSFPPTFGQGTKVEIK	0.11
15A11.1: fully human anti-heparanase monoclonal antibody, G2κ; VH SEQ ID NO 10, VL SEQ ID NO 12; ATCC PTA-9490 (antibody, listed as Homo Sapiens, V domains shown, fully human anti-heparanase monoclonal antibody, G2κ; ATCC PTA-9490) VH: QVQLVQSGAEVKKPGASVKVSCKVSGDTLTELSMHWVRQTPGKGLEWMGGFDPEDGETIYAQKFQGRVTMTGDTSTDTAYMELSSLRSEDTAVYYCATEGDYGDSEEYYYYYGMDVWGQGTTVTVSS VL: DIQMTQSPSSLSASVGDRVTITCRASQGISNYLAWYQQKPGKVPKLLIYAASTLQSGVPSRFSGSGSGTDFTLTISSLQPEDVATYYCQKYNRAPFTFGPGTKVDIK	0.14
14H12.3: human anti-heparanase monoclonal antibody, G2λ; VH SEQ ID NO 26, VL SEQ ID NO 28 (antibody, listed as Homo Sapiens, V domains shown) VH: QVQLVESGGGVVQPGRSLRLSCAASGFTFSSYGMHWVRQAPGKGLEWVAVIWYDGSNKDYADSVKGRFTISRDNSKNTLYLQMNSLRAEDTAVYYCAREGSTSWTDYYGMDVWGQGTTVTVSS VL: SYELTQPPSVSVSPGQTARITCSGDALPKRYAYWYQQKSGQALVLVIYEDSKRPSGIPERFSGSSSGTMATLTISGAQVEDEADYYCYSIDSSGNHGVFGGGTKLTVL	0.95

// recorded Binding to heparanase Cyno for 7B9.1: human anti-heparanase monoclonal antibody, G4λ; VH SEQ ID NO 22, VL SEQ ID NO 24 (antibody, listed as Homo Sapiens, V domains shown) VH: QVQLVESGGGVVQPGRSLRLSCAASGFTFSSYGMHWVRQAPGKGLEWVAVIWYDGSNKYYADSVKGRFTISRDNSKNTLYLQMNSLRAEDTAVYYCAREGAPYSSSDAFDIWGQGTMVTVSS VL: QSVLTQPPSVSGAPGQRVTISCTGSSSNIGANYDVHWYQQLPGTAPKLLIYGDNNRPSGVPDRFSGSKSGTSASLAITGLQAEDEADYYCQSYDSSLSGSVFGGGTKLTVL : 1.06

// recorded Binding to heparanase Cyno for 16G1.1: human anti-heparanase monoclonal antibody, G4κ; VH SEQ ID NO 14, VL SEQ ID NO 16 (antibody, listed as Homo Sapiens, V domains shown) VH: QVQLVESGGGVVQPGRSLRLSCAASGFTFSSYGMHWVRQAPGKGLEWVAVIWYDGSNKYYADSVKGRFTISRDNSKNTLNLQMNSLRAEDTAVYYCGRDPGTYHYYYHGMDVWGQGTTVTVSS VL: YIVMTQSPLSLPVTPGEPASISCRSSQSLLHSNGYNFLDWYLQKPGQSPQLLIYLGSNRASGVPDRFSGSGSGTDFTLKINRVEAEDVGVYYCMQALQTPITFGQGTRLEIK : 1.64
